tested on: MLK3; details: concentration: 1 μM, replicates: in singlicate; n = 1;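 further: KINOMEscan kinase panel screen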
Measured endpoint: %Inh (%)
Please state the figure in %; there is no need to write the unit.

Example cases with answers are listed next.
# Molecule, %Inh, %
rows = [
    ("CCOc1nccc(-c2c(-c3ccc(F)cc3)ncn2C2CCNCC2)n1 [SB-249175]", 15),
    ("O=C(Nc1n[nH]c2nc(-c3cccc(O)c3)ccc12)C1CC1 [SB-711805]", 3),
    ("CN(c1ccc2c(c1)nc(NCc1ccccc1)n2C)c1ccnc(Nc2ccc(CS(C)(=O)=O)cc2)n1.Cl [GW811603]", 2),
]

Need %Inh, item CC(C)NCC(Cc1ccccc1)NC(=O)c1cc(Br)c(-c2ccnc3[nH]ccc23)s1.Cl.Cl (stereo not drawn) [GSK1383281]
0

Now the same for COc1cccc(-c2nc(-c3ccccc3)[nH]c2-c2ccncc2)c1 [SB-610250]
0

Now the same for CCn1c(-c2nonc2N)nc2c(-c3ccccc3)ncc(OCCCN)c21.O=C(O)C(F)(F)F.O=C(O)C(F)(F)F [GSK260205]
0

Now the same for Cl.N#CCc1ccc(Nc2nccc(Nc3ccc(Oc4ccccc4)cc3)n2)cc1 [GW639905]
0

Now the same for Cc1ccc(-c2ccc3occ(-c4ccc(S(C)=O)cc4)c3c2)nn1 (stereo not drawn)
0

Now the same for O=C1NC(=O)C(c2ccccc2Cl)=C1Nc1cccc(Cl)c1 [SB-342409]
0

---

system: CSNK2A1; conditions: concentration: 1 μM, replicates: in singlicate; n = 1
# %Inh per entry
Please state the figure in %; there is no need to write the unit.

Example cases with answers are listed next.
# Query smiles, %Inh, %
rows = [
    ("COc1ccc(NC(=O)c2ccoc2)cc1-c1ccc(C(=O)NCC2CC2)cc1", 0),
    ("Cl.N#CCc1ccc(Nc2nccc(Nc3ccc(Oc4ccccc4)cc3)n2)cc1", 0),
    ("Cc1ccc(O)cc1Nc1ccnc2ccc(C(C)(C)C)cc12", 1),
    ("COC(=O)Nc1nc2cc(Oc3ccc(NC(=O)Nc4cccc(SC)c4)cc3)ccc2[nH]1.Cl", 0),
    ("Cc1ccccc1CC(=O)N1CCc2cc(-c3cn(C)c4ncnc(N)c34)ccc21", 30),
    ("CN(C)CCOc1ccc(-c2cc(-c3ccc(Cl)c(O)c3)c(-c3ccncc3)[nH]2)cc1.Cl.Cl", 24),
    ("CCn1cnc2c(NCc3ccccc3)ncnc21", 0),
    ("CN(C)c1ncnc2nc[nH]c12", 0),
]

Need %Inh, item Cc1cccc(Nc2nc(NCCN)ncc2C(N)=O)c1
34

Now the same for COc1cc(Nc2nccc(N3CCC(NS(=O)(=O)c4ccc(NC(C)=O)cc4)CC3)n2)cc(OC)c1OC
8

Now the same for CN(c1ccc(F)c(NC(=O)c2cccc(OC(C)(C)C#N)c2Cl)c1)c1ccc2nc(NC(=O)C3CC3)sc2n1
35

---

system: ALK; conditions: concentration: 1 μM, replicates: in singlicate; n = 1
# %Inh per entry

Example cases with answers are listed next.
# Molecule, %Inh
records = [
    ("COC(=O)Nc1nc2ccc(Oc3ccc(CC(=O)Nc4cc(C(F)(F)F)ccc4F)cc3)cc2[nH]1", "36%"),
    ("CN(c1ccc(NC(=O)Nc2cccc(Cl)c2)cc1)c1ccnc(N)n1.Cl", "0%"),
]

Need %Inh, item N#Cc1cnc2cc(-c3cnc(CNCCN4CCOCC4)s3)ccc2c1Nc1ccc(Oc2ccccc2)cc1
34%

Now the same for CN(c1ccc2c(c1)nc(NCc1ccccc1)n2C)c1ccnc(Nc2ccc(CS(C)(=O)=O)cc2)n1.Cl
49%

Now the same for CN(c1ccc(NC(=O)N2CCN(CCCN3CCOCC3)CC2)cc1)c1ccnc(Nc2ccc(CS(C)(=O)=O)cc2)n1.Cl
0%

Now the same for Cc1cc(-c2c(-c3ccc(F)cc3)ncn2CCCN2CCOCC2)nc(N)n1
0%

Now the same for Cc1ccc(-c2ccc3occ(-c4ccc(S(C)=O)cc4)c3c2)nn1 (centres unmarked)
0%

Now the same for CN(C)CCOc1ccc(-c2cc(-c3ccc(Cl)c(O)c3)c(-c3ccncc3)[nH]2)cc1.Cl.Cl
18%
